systemTested: T1, KDM5B-PHD1-D345A (Homo sapiens)
T1 chain: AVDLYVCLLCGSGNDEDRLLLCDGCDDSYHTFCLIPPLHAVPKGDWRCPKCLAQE
testSummary: ITC
experimentalEndpoint: Kd
Answer with the value and then the unit.

Field request: Kd | item: ARTKQTARKS (histone H3 N-terminal tail, residues 1-10; also called H3K4me0; H3K4me0 peptide; source: synthetic peptide, bought: GL Biochem Ltd. (Shanghai, China)) [unmodified H3K4 peptide (residues 1-10)]
6.7 µM
